Tested on: transglutaminase (TGase)
Experiment: Measurement of TG (TGase inhibitory activity, monodansyl cadaverine / N,N-dimethylcasein fluorescence, FDSS 3000)
Assay type: biochemical
Conditions: TGase activity with compound (10 mM, 1 μL in 0.1 ml enzyme reaction solution); DMSO control taken as 100
PROPERTY: TGase activity remaining (% of DMSO control = 100)

> print(dat)
                                   molecule  recorded.result
1  OB(O)c1ccc(F)c(Cl)c1 [Example 145, (3-chloro-4-fluorophenyl)boronic acid]               97
2  CC1[NH2+][B-](c2ccccc2)(c2ccccc2)OC1=O (stereo not shown) [Example 258, diphenyl(alaninate-O,N)borane]              110
3  Cc1cc(B(OCCN)c2cccc(COCc3ccccc3B(OCCN)c3ccc(Cl)c(C)c3)c2)ccc1Cl [Example 351]              103
4  COc1ccc(F)cc1B(O)c1ccc(COCc2ccc(B(O)c3cc(F)ccc3OC)cc2)cc1 [Example 349]              104
